assay-overview: Aqueous solubility of the compound in pure water at 25 degC
Assay type: physicochemical
metric: solubility (mg/mL)
Express the result in mg/mL but write the number alone.

Prompt line: Any idea what its solubility is? The molecule is CN(C)CCNC(=O)c1cc2c3cc(O)ccc3n(C)c2c2cccnc12.Cl
Response line: 22.4

====

System: A549
assay-overview: Antitumor activity against human A549 cells after 72 hrs by sulforhodamine B assay
Format: functional, cell-based
assay-setup: A549, 72 h
metric: IC50 (nM)
Number in nM, nothing else.

>>> df
                              line_notation  metric  units_of_measure  value
0  Cn1c2ccccc2c2cc(C(=O)NCCN3CCCCC3)c3ncccc3c21    IC50                nM    820
1  COc1ccc2c(c1)c1cc(C(=O)NCCN(C)C)c3ncccc3c1n2C    IC50                nM    220
2  CN(C)CCCNC(=O)c1cc2c3ccccc3[nH]c2c2cccnc12    IC50                nM    770
3    CNCCNC(=O)c1cc2c3ccccc3n(C)c2c2cccnc12    IC50                nM   1370
4  CN(C)CCNC(=O)c1cc2c3ncccc3n(C)c2c2cccnc12    IC50                nM    360

Prompt line: # IC50 lookup, item CN(C)CCNC(=O)c1cc2c3ccccc3sc2c2cccnc12
Response line: 270

Prompt line: State the recorded IC50 for this entry: CN(C)CCNC(=O)c1cc2c3cc(O)ccc3n(C)c2c2cccnc12
Response line: 70

Prompt line: // returns reported IC50 for input CN(C)CCNC(=O)c1cc2c3ccccc3n(C)c2c2cccnc12
Response line: 390

Prompt line: Record request: IC50 value, item CN(C)CCN1C(=O)c2cccc3c2c(cc2c4ccccc4sc32)C1=O
Response line: 200

====

System: A549
assay-overview: Antitumor activity against human A549 cells after 72 hrs by sulforhodamine B assay
Assay type: functional, cell-based
assay-setup: A549, 72 h
metric: log10 IC50 (log10 of the value in nM)
# log10 transformed; quantity=IC50; unit=nM

Answered cases to consult:
                              line_notation  value
0  CN(C)CCNC(=O)c1cc2c3cnccc3n(C)c2c2cccnc12   2.20
1     Cn1c2ccccc2c2cc(C(=O)NCCO)c3ncccc3c21   3.49
2     Cn1c2ccccc2c2cc(C(=O)NCCN)c3ncccc3c21   3.32
3  Cn1c2ccccc2c2cc(C(=O)NCCN3CCOCC3)c3ncccc3c21   3.07
4  Cn1c2ccccc2c2cc(C(=O)NCCCN3CCOCC3)c3ncccc3c21   2.85

Moving on to another compound below.
Prompt line: Need log10 IC50 of CN(C)CCCNC(=O)c1cc2c3ccccc3n(C)c2c2cccnc12 , thanks.
Response line: 2.75
